System: keratinocytes
Experiment: Rate of DNA synthesis (3H-thymidine incorporation) in keratinocytes
Assay type: cell-based, human
Conditions: Table 5; 1 uM ceramide + 10 uM Econazole, 100 nM 1,25D; * = synergistic effect
reported metric: keratinocyte DNA synthesis, % of the corresponding controls (10 uM Econazole)

[[record]]
compound = "CCCCCCCCCCCCCCCCN(CC(O)CO)C(C)=O (centres unmarked)"
data_value = "40.9 + 9.0%"


For each entry beneath this line, provide reported keratinocyte DNA synthesis, % of the corresponding controls (10 uM Econazole).
1. CCCCCCCCCCCCCCC(O)CN(CCO)C(=O)CCCCC (centres unmarked)
2. CCCCCCCCCCCCC/C=C/C(O)C(CO)NC(=O)CCCCC (centres unmarked)
3. CCCCCCCCCCCCCCCCN(CC(O)CO)C(=O)CCCCC (centres unmarked)
4. CCCCCCCCCCCCCCC(O)CN(CCO)C(C)=O (centres unmarked)

1: 28.8 + 3.9%; 2: 61.7 + 17%; 3: 28.2 + 15.2%; 4: 47.2 + 33.6%

###

Tested on: keratinocytes
Assay: Rate of DNA synthesis (3H-thymidine incorporation) in keratinocytes
Format: cell-based, human
Conditions: Table 5; 1 uM ceramide, no azole, 100 nM 1,25D; * = synergistic effect
Protocol: 1. Normal human keratinocytes isolated from neonatal foreskins by trypsin treatment were grown in DME medium/10% fetal calf serum in the presence of irradiated 3T3 mouse fibroblasts for establishing dividing keratinocyte colonies. […] 3. […] The cells were incubated overnight and […] (10:00 AM next day) the amount of ^3 -thymidine associated with the cellular DNA of keratinocytes was assessed as described below. 4. […] Mean and standard deviation for each group was also calculated. […]
Give measured keratinocyte DNA synthesis, % of the corresponding controls (no azole) for each item. Keep answers brief.
Give bare numbers, in %.

Some molecules with recorded keratinocyte DNA synthesis, % of the corresponding controls (no azole):
[[record]]
molecule = "CCCCCCCCCCCCCCCCN(CC(O)CO)C(C)=O (centres unmarked)"
measured_on = "keratinocytes"
output_unit = "%"
data_value = 90.3

[[record]]
molecule = "CCCCCCCCCCCCN(CC(O)CO)C(=O)C(O)CCCCCC (centres unmarked)"
measured_on = "keratinocytes"
output_unit = "%"
data_value = 100.2

[[record]]
molecule = "CCCCCCCCCCCCCCC(O)CN(CCO)C(C)=O (centres unmarked)"
measured_on = "keratinocytes"
output_unit = "%"
data_value = 77.7

[[record]]
molecule = "CCCCCCCCCCCCCCCCN(CC(O)CO)C(=O)CCCCC (centres unmarked)"
measured_on = "keratinocytes"
output_unit = "%"
data_value = 102.8


Now for the molecule whose keratinocyte DNA synthesis, % of the corresponding controls (no azole) we want.
Specify keratinocyte DNA synthesis, % of the corresponding controls (no azole) for CCCCCCCCCCCCC/C=C/C(O)C(CO)NC(=O)CCCCC (centres unmarked) and stop.
126.6

###

Tested on: keratinocytes
Experiment: Rate of DNA synthesis (3H-thymidine incorporation) in keratinocytes
Format: cell-based, human
Conditions: Tables 5A-5I; 100 nM 1,25D; Econazole 10 uM, ceramide analogue 1 uM
Kind request: treat 80 % control as inclusive, so DNA synthesis (% control) at 80 % control or higher is met, anything lower is not met.

[[record]]
compound = "CCCCCCCCCCCCCCC(O)CN(CCO)C(=O)CCCCC (centres unmarked) [Formula D]"
measured_on = "keratinocytes"
label_class = "not met"


Confirm if DNA synthesis (% control) reported for the compound CCCCCCCCCCCCC/C=C/C(O)C(CO)NC(C)=O (centres unmarked) [Formula A] is 80 % control or above.
met

Could you verify whether the entry CCCCCCCCCCCCCCCCOCC(O)CN(CCO)C(C)=O (centres unmarked) [Formula E] shows DNA synthesis (% control) of no less than 80 % control?
met
